Recorded measurements of growth inhibition, one per entry
Test: NCI Yeast Anticancer Drug Screen. Data for the bub3 strain (AID 167)
Conditions: S. cerevisiae bub3 mutant strain, at 50.0 µM, active compounds read high
Compounds without any hit were thinned out: in the full panel of roughly 79,000, 15% have a hit.
Provide the reading as a plain figure in %.

Cl.[O-]c1cccc2cccnc12.[O-]c1cccc2cccnc12.[O-]c1cccc2cccnc12.[O-]c1cccc2cccnc12.[Ti+4] :: 92

What growth inhibition value was documented for this molecule, C(=NCCN=CC1CCCC[N-]1)C1CCCC[N-]1.[Cu+2].[O-][Cl+3]([O-])([O-])O (stereo unspecified) ?
69.5

Given the entry Clc1cc[c]([Sb]2([c]3ccc(Cl)cc3)([c]3ccc(Cl)cc3)[O]C(C(Cl)(Cl)Cl)[O]2)cc1 (stereo unspecified) , report its measured growth inhibition.
97

Would you kindly share the measured growth inhibition for `CC(=O)Nc1ccc(-c2ccccc2)cc1` ?
-0.5

I am curious: what growth inhibition value has been reported for `COc1ccc(-n2c(C)nc3ccccc3c2=O)cc1CN(CCCl)CCCl` ?
2.6

Item `CC(C)(C)N.[O]=[Cr](=[O])([OH])[OH]` has what recorded growth inhibition?
21.7

# query: growth inhibition of entry `CCCCCCCCCCCCCCCC[As](=O)(O)CCCCCCCCCCCCCCCC`
7.2

Param item = `CC(C)=CCC/C(C)=N\N=C(N)N` ; retrieve measured growth inhibition.
-2.8

Data request, read-out growth inhibition, for `O=C1NC(=O)C(O)(Cc2ccccn2)C(=O)N1`
-21.1

Using the record for `c1cc[n+]2c(c1)-c1cccc[n+]1CC2` , report its growth inhibition.
19.3

What value of growth inhibition has been recorded for this entry: C[N+]1(CCCl)CCc2ccc([N+](=O)[O-])cc2C1 (stereo unspecified)
9.3

State the recorded growth inhibition for this entry: `O=C(CCCN1CCC2(CC1)C(=O)NCN2c1ccccc1)c1ccccc1`
2.35

Using the record for `OC1(C#[C][Hg][C]#CC2(O)CCCCC2)CCCCC1` , report its growth inhibition.
97.4

Using the record for `Nc1ccc(C(=O)N/N=C/c2ccc(N(CCBr)CCBr)cc2)cc1` , report its growth inhibition.
5.3

growth inhibition for `c1ccc(NNc2ccccc2)cc1` ?
-6.15

Dear colleague, I am looking for the recorded growth inhibition of the following molecule: `O=C(c1cc(N(CCCl)CCCl)c([N+](=O)[O-])cc1[N+](=O)[O-])N1CCOCC1`
19.3

Would you mind telling me what growth inhibition value was observed for `N#CC(C#N)=Cc1ccccc1[N+](=O)[O-]` ?
39.8

# input molecule: `CCN(CC)CCO` ; wanted: its growth inhibition
15.2

Record request: growth inhibition value, item `C[N+](C)(Cc1ccc([N+](=O)[O-])cc1)c1ccc(N(CCCl)CCCl)cc1`
-21.8

Returns the measured growth inhibition for the input molecule. Input: CCCCCCC(Cn1ccnc1)c1ccc(Br)cc1 (stereo unspecified)
99.5

If you can, please state the reported growth inhibition value of CCC(C#N)N1CC1 (stereo unspecified) .
-4.35
